Source listed as patent US20100087466A1.

Collected pIC50 values appear next to each entry.
target: DnaK (Escherichia coli, UniProt P0A6Y8); assay: DnaK Inhibition Assay (DnaK induced refolding of denatured firefly luciferase); format: biochemical, E. coli; details: DnaK 200 nM, DnaJ 100 nM, GrpE 400 nM, read-out: DnaK IC50
Sequence (P0A6Y8 2-638): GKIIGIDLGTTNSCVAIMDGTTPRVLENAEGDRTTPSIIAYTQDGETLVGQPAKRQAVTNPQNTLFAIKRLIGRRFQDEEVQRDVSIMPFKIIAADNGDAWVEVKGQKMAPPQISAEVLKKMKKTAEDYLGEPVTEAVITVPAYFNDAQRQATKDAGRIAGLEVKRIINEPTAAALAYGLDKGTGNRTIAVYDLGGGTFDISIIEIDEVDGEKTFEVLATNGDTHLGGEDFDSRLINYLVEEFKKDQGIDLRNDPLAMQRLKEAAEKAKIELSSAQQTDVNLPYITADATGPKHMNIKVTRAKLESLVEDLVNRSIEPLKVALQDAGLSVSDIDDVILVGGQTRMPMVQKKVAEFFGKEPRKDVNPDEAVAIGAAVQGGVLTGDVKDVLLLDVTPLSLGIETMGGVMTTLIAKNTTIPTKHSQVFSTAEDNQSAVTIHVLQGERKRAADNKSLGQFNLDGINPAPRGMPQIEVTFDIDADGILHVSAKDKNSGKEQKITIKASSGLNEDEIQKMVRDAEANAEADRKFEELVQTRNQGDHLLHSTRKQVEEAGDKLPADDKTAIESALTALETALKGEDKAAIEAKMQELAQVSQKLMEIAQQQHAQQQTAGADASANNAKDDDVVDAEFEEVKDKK
Where a name gives a salt, the structure may show the parent alone. Non-standard residues stand in square brackets, D forms with d. Residues, ends and D or L forms follow the SMILES beside them. *: point of attachment. Phe(4-F) = N[C@@H](Cc1ccc(F)cc1)C(=O)O; NH(CH2)3Ph = c1ccc(CCCN*)cc1; Octanoyl = CCCCCCCC(=O)*; Piperidide = C1CCN(*)CC1; Bn = c1ccc(C*)cc1; NHBu = CCCCN*
Field pIC50 (float): negative decimal logarithm of the concentration in molar.

INSERT INTO measurements (compound, parameter_measured, measurement) VALUES
  ('CCCCCCCC(=O)N[C@@H](Cc1ccc(OCc2ccccc2)cc1)C(=O)N[C@@H](CC(C)C)C(=O)N1CCC[C@H]1C(=O)N[C@H](CCCNC(=N)N)C(=O)N1CCCCC1 [Structure 28] (Octanoyl-Y(Bn)LP[dR]-Piperidide)', 'pIC50', 4.89),
  ('COC(=O)[C@@H]1CCCN1C(=O)[C@H](CC(C)C)NC(=O)[C@H](Cc1ccc(F)cc1)NC(C)=O [Structure 10, Ac(4-F)Phe-Leu-Pro-OMe] (Ac-[Phe(4-F)]-Leu-Pro-OMe)', 'pIC50', 4.59),
  ('CC(=O)N[C@@H](Cc1ccc(O)cc1)C(=O)N[C@@H](CC(C)C)C(=O)N1CCC[C@H]1C(=O)N[C@@H](CCCNC(=N)N)C(=O)N1CCC[C@H]1C(=O)NCCCc1ccccc1 [Structure 16, Ac-Tyr-Leu-Pro-Arg-Pro-NH(CH2)3Ph.TFA] (Ac-YLPRP-{NH(CH2)3Ph})', 'pIC50', 4.62);

Then this compound:
pIC50 reported for this compound CCCCNC(=O)[C@@H]1CCCN1C(=O)[C@H](CCCNC(=N)N)NC(=O)[C@@H]1CCCN1C(=O)[C@H](CC(C)C)NC(=O)[C@H](Cc1ccc(O)cc1)NC(C)=O [Structure 15, Ac-Tyr-Leu-Pro-Arg-Pro-NHBu.TFA] (Ac-YLPRP-NHBu) : 4.62

----------
molecular target: DnaK (Escherichia coli, UniProt P0A6Y8); experiment: DnaK Inhibition Assay (DnaK induced refolding of denatured firefly luciferase); assay type: biochemical, E. coli; settings: DnaK 200 nM, DnaJ 100 nM, GrpE 400 nM, read-out: DnaK IC50
Counter-ions that a name gives are not always drawn. Non-standard residues stand in square brackets, D forms with d. Residues, ends and D or L forms follow the SMILES beside them. *: point of attachment. Phe(4-NH2) = Nc1ccc(C[C@H](N)C(=O)O)cc1; Hydrocinnamoyl = O=C(CCc1ccccc1)*; NH(CH2)3Ph = c1ccc(CCCN*)cc1; Orn = NCCC[C@H](N)C(=O)O; Piperidide = C1CCN(*)CC1; Cbz = O=C(OCc1ccccc1)*; Boc = CC(C)(C)OC(=O)*
parameter_measured: IC50 (µM)
Reply numerically in µM, unit not repeated.

Consider the worked cases shown below.
INSERT INTO results (compound, measurement) VALUES
  ('CC(=O)N[C@@H](Cc1ccc(NC(=O)OCc2ccccc2)cc1)C(=O)N[C@@H](CC(C)C)C(=O)N1CCC[C@H]1C(=O)O [Structure 7, Ac-4-(NHCbz)Phe-Leu-Pro-OH] (Ac-[Phe(4-NH2)](Cbz)-Leu-Pro-OH)', 72),
  ('CC(=O)N[C@@H](Cc1ccc(O)cc1)C(=O)N[C@@H](CC(C)C)C(=O)N1CCC[C@H]1C(=O)N[C@@H](CCCNC(=O)OC(C)(C)C)C(=O)N1CCC[C@H]1C(=O)NCCCc1ccccc1 [Structure 18, Ac-Tyr-Leu-Pro-Orn(Boc)-Pro-NH(CH2)3Ph] (Ac-YLP[Orn](Boc)P-{NH(CH2)3Ph})', 54),
  ('CC(=O)N[C@@H](Cc1ccc(OCc2ccccc2)cc1)C(=O)N[C@@H](CC(C)C)C(=O)N1CCC[C@H]1C(=O)NCCCCN [Structure 5, Ac-Tyr(Bzl)-Leu-Pro-NH(CH2)4NH2.TFA]', 45);

Then this compound:
IC50 reported for this compound CC(C)C[C@H](NC(=O)CCc1ccccc1)C(=O)N1CCC[C@H]1C(=O)N[C@@H](CCCNC(=N)N)C(=O)N1CCCCC1 [Structure 13, Ph(CH2)2C(O)-Leu-Pro-Arg-N(CH2)5] (Hydrocinnamoyl-Leu-Pro-Arg-Piperidide) : 12

----------
Collected IC50 values appear next to each entry.
molecular target: DnaK (Escherichia coli); experiment: DnaK Inhibition Assay (DnaK induced refolding of denatured firefly luciferase); format: biochemical, E. coli; conditions: DnaK 200 nM, DnaJ 100 nM, GrpE 400 nM, read-out: DnaK IC50(μg/ml) (converted)
Structures can show the parent of a compound that is named as a salt. Non-standard residues stand in square brackets, D forms with d. Residues, ends and D or L forms follow the SMILES beside them. *: point of attachment. Hyp = O=C(O)[C@@H]1C[C@@H](O)CN1; NH(CH2)3Ph = c1ccc(CCCN*)cc1; Octanoyl = CCCCCCCC(=O)*; Orn = NCCC[C@H](N)C(=O)O; Piperidide = C1CCN(*)CC1; Bn = c1ccc(C*)cc1; NHBu = CCCCN*
Reply numerically in µM, unit not repeated.

INSERT INTO assay_data (compound, parameter_measured, measurement) VALUES
  ('CCCCNC(=O)[C@@H]1CCCN1C(=O)[C@H](CCCNC(=N)N)NC(=O)[C@@H]1CCCN1C(=O)[C@H](CC(C)C)NC(=O)[C@H](Cc1ccc(O)cc1)NC(C)=O [Structure 15, Ac-Tyr-Leu-Pro-Arg-Pro-NHBu.TFA] (Ac-YLPRP-NHBu)', 'IC50', 39.1);

IC50 reported for this compound CC(=O)N[C@@H](Cc1ccc(O)cc1)C(=O)N[C@@H](CC(C)C)C(=O)N1CCC[C@H]1C(=O)N[C@@H](CCCN)C(=O)N1CCC[C@H]1C(=O)NCCCc1ccccc1 [Structure 19, Ac-Tyr-Leu-Pro-Orn-Pro-NH(CH2)3Ph] (Ac-YLP[Orn]P-{NH(CH2)3Ph}) : 60.4

IC50 reported for this compound CCCCCCCC(=O)N[C@@H](Cc1ccc(OCc2ccccc2)cc1)C(=O)N[C@@H](CC(C)C)C(=O)N1C[C@H](O)C[C@H]1C(=O)N[C@H](CCCNC(=N)N)C(=O)N1CCCCC1 [Structure 32] (Octanoyl-Y(Bn)L[Hyp][dR]-Piperidide) : 14.2

IC50 reported for this compound CCCCCCCC(=O)N[C@@H](Cc1ccc(OCc2ccccc2)cc1)C(=O)N[C@@H](CC(C)C)C(=O)N1CCC[C@H]1C(=O)N1CCCC(CNC(=N)N)C1 (stereo partly shown) : 26.8

----------
molecular target: DnaK (Escherichia coli, UniProt P0A6Y8); assay: DnaK Inhibition Assay (DnaK induced refolding of denatured firefly luciferase); type: biochemical, E. coli; settings: DnaK 200 nM, DnaJ 100 nM, GrpE 400 nM, read-out: DnaK IC50(μg/ml) (converted)
Where a name gives a salt, the structure may show the parent alone. Non-standard residues stand in square brackets, D forms with d. Residues, ends and D or L forms follow the SMILES beside them. *: point of attachment. Phe(4-NH2) = Nc1ccc(C[C@H](N)C(=O)O)cc1; NH(CH2)3Ph = c1ccc(CCCN*)cc1; Octanoyl = CCCCCCCC(=O)*; Piperidide = C1CCN(*)CC1; Cbz = O=C(OCc1ccccc1)*
Entries whose IC50 is below 20 µM take Satisfied; entries at or above 20 µM take Not satisfied.

Worked set:
INSERT INTO measurements (molecule, target_of_assay, category_label) VALUES
  ('CCCCCCCC(=O)N[C@@H](Cc1ccc(OCc2ccccc2)cc1)C(=O)N[C@@H](CC(C)C)C(=O)N1CCC[C@H]1C(=O)N1CC[C@H](NC(=N)N)C1', 'DnaK (Escherichia coli, UniProt P0A6Y8)', 'Satisfied'),
  ('CC(=O)N[C@@H](Cc1ccc(O)cc1)C(=O)N[C@@H](CC(C)C)C(=O)N1CCC[C@H]1C(=O)N[C@@H](CCCNC(=N)N)C(=O)N1CCC[C@H]1C(=O)NCCCc1ccccc1 [Structure 16, Ac-Tyr-Leu-Pro-Arg-Pro-NH(CH2)3Ph.TFA] (Ac-YLPRP-{NH(CH2)3Ph})', 'DnaK (Escherichia coli, UniProt P0A6Y8)', 'Not satisfied'),
  ('CCCCCCCC(=O)N[C@@H](Cc1ccc(O)cc1)C(=O)N[C@@H](CC(C)C)C(=O)N1CCC[C@H]1C(=O)N[C@H](CCCNC(=N)N)C(=O)N1CCCCC1 [Structure 27] (Octanoyl-YLP[dR]-Piperidide)', 'DnaK (Escherichia coli, UniProt P0A6Y8)', 'Satisfied'),
  ('CCCCCCCC(=O)N[C@@H](Cc1ccc(OCc2ccccc2)cc1)C(=O)N[C@@H](CC(C)C)C(=O)N1CCC[C@H]1C(=O)NCCNC(=N)N', 'DnaK (Escherichia coli, UniProt P0A6Y8)', 'Not satisfied');

Here is another molecule to look at.
In the record for CC(=O)N[C@@H](Cc1ccc(NC(=O)OCc2ccccc2)cc1)C(=O)N[C@@H](CC(C)C)C(=O)N1CCC[C@H]1C(=O)O [Structure 7, Ac-4-(NHCbz)Phe-Leu-Pro-OH] (Ac-[Phe(4-NH2)](Cbz)-Leu-Pro-OH) , is IC50 less than 20 µM?
Not satisfied
